Target: h-TGR5 (Homo sapiens, UniProt Q8TDU6)
Experiment: TGR5 cAMP Assay using Cisbio cAMP Dynamic 2 htrf assay kit
Details: hTGR5CRE-luc HEK 293 cells
attributeMeasured: EC50

[
  {
    "compound": "COc1cc(-n2c(C(C)(C)c3ccc(S(N)(=O)=O)c(Cl)c3)cnc2SCc2c(F)cc(S(=O)(=O)NCCC[N+](C)(C)C)cc2F)ccc1F",
    "EC50": "< 100 nM"
  },
  {
    "compound": "COc1cc(C(C)(C)c2cnc(SCc3c(F)cc(S(=O)(=O)NCCC[N+](C)(C)C)cc3F)n2-c2ccc(F)cc2)ccc1F",
    "EC50": "< 100 nM"
  },
  {
    "compound": "COc1cc(C(C)(C)c2cnc(SCc3c(F)cc(S(=O)(=O)N(CCC[N+](C)(C)C)[C@@H](CCC(=O)O)C(=O)O)cc3F)n2-c2ccc(F)cc2)ccc1Cl [Compound 14ag]",
    "EC50": "100 to 1000 nM"
  },
  {
    "compound": "COc1cc(C(C)(C)c2cnc(SCc3c(F)cc(S(=O)(=O)N(C)CCC[N+](C)(C)C)cc3Cl)n2-c2ccc(F)cc2)ccc1Cl [Compound 12c, 2,2,2-trifluoroacetate]",
    "EC50": "< 100 nM"
  },
  {
    "compound": "COC(=O)C(C)(C)N(CCC[N+](C)(C)C)S(=O)(=O)c1cc(F)c(CSc2ncc(C(C)(C)c3ccc(Cl)c(OC)c3)n2-c2ccc(F)cc2)c(F)c1 [Compound 14af]",
    "EC50": "< 100 nM"
  },
  {
    "compound": "COc1cc(-n2c(C(C)(C)c3ccc(Cl)c(Cl)c3)cnc2SCc2c(F)cc(S(=O)(=O)NCCC[N+](C)(C)C)cc2F)ccc1F",
    "EC50": "< 100 nM"
  }
]

# returns recorded EC50 (system: h-TGR5 (Homo sapiens, UniProt Q8TDU6)) for COc1cc(C(C)(C)c2cnc(SCc3c(F)cc(S(=O)(=O)N(CCC[N+](C)(C)C)[C@@H](C(=O)O)C(C)C)cc3F)n2-c2ccc(F)cc2)ccc1Cl [Compound 14q]
< 100 nM

Try the compound "COc1cc(-n2c(C(C)(C)c3ccc(Cl)c(Cl)c3)cnc2SCc2c(F)cc(C(=O)N[C@H]3CCC[N+](C)(C)C3)cc2Cl)ccc1F"
< 100 nM

Try the compound "COc1cc(C(C)(C)c2cnc(SCc3c(F)cc(S(=O)(=O)N(CCC[N+](C)(C)C)CCC[N+](C)(C)C)cc3F)n2-c2ccc(F)cc2)ccc1Cl"
< 100 nM

Try the compound COC(=O)[C@@H](C)N(CCC[N+](C)(C)C)S(=O)(=O)c1cc(F)c(CSc2ncc(C(C)(C)c3ccc(Cl)c(OC)c3)n2-c2ccc(F)cc2)c(F)c1 [Compound 14, 2,2,2-trifluoroacetate]
< 100 nM

Try the compound COc1cc(C(C)(C)c2cnc(SCc3c(F)cc(S(=O)(=O)N(CCC[N+](C)(C)C)CCC(=O)O)cc3Cl)n2-c2ccc(F)cc2)ccc1Cl [Compound 14u]
< 100 nM

* * *

Molecular target: h-TGR5 (Homo sapiens, UniProt Q8TDU6)
Sequence (Q8TDU6 1-330): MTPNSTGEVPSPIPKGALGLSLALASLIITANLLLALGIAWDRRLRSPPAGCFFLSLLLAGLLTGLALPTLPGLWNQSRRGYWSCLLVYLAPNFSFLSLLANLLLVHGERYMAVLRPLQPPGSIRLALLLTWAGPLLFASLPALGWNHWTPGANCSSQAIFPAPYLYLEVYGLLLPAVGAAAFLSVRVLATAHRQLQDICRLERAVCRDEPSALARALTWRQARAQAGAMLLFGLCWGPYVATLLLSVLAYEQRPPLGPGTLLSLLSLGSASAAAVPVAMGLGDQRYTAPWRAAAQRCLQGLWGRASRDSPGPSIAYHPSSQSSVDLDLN
Assay: TGR5 cAMP Assay using Cisbio cAMP Dynamic 2 htrf assay kit
Conditions: hTGR5CRE-luc HEK 293 cells
Reported EC50 by item:

Observe how each entry below is paired with its result.
[
  {
    "compound": "COc1cc(C(C)(C)c2cnc(SCc3ccc(Cl)c(S(=O)(=O)NCCC[N+](C)(C)C)c3)n2-c2ccc(F)cc2)ccc1Cl [Example 6l]",
    "measured": "< 100 nM"
  },
  {
    "compound": "COc1cc(C(C)(C)c2cnc(SCc3c(F)cc(S(=O)(=O)N(C)[C@H](CCC[N+](C)(C)C)C(=O)O)cc3Cl)n2-c2ccc(F)cc2)ccc1Cl [Compound 17d, 2,2,2-trifluoroacetate]",
    "measured": "< 100 nM"
  }
]

Consider the record given below.
Value lookup for EC50; key = COc1cc(C(C)(C)c2cnc(SCc3c(F)cc(S(=O)(=O)N(CCC[N+](C)(C)C)Cc4cccc(C(=O)O)c4)cc3F)n2-c2ccc(F)cc2)ccc1Cl [Compound 14v]
< 100 nM

The reported measurements were obtained from patent US8846739B2.
